target: T1, Recombinant Human FGFR2 alpha (IIIc) Fc Chimera Protein, CF (R&D systems, 712-FR-050) (human, UniProt P21802 22-377); assay: ELISA on plate-bound FGFR2-Fc
T1 construct: bought; not shown: Fc part of the chimera
T1 sequence (P21802 22-377, change not shown): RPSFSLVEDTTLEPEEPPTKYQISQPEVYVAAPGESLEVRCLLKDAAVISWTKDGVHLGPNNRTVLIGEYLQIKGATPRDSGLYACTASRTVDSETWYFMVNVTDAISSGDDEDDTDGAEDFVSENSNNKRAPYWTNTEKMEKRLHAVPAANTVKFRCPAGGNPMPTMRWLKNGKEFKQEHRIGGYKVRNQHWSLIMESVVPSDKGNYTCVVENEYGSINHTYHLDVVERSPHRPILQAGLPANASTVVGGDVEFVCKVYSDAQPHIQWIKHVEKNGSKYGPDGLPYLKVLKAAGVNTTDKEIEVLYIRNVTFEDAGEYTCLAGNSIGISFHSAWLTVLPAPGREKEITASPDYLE
Bridge positions count the residues as written; N and C are the ends. Ends that are not written are not given here. COCH2 = acetyl group that carries the bridge
What ELISA luminescence signal at 10 nmol/L peptide, relative to SEQ ID NO: 47 (=1) was measured for each of the following?

Which ELISA luminescence signal at 10 nmol/L peptide, relative to SEQ ID NO: 47 (=1) value belongs to YCEENYLTPEQYQYFIYFK(COCH2)Y (thioether 2-19 (inferred)) [cyclic peptide SEQ ID NO: 217] ?
≥ 0.7 ratio

# repeat for YCEENYLDPEQYWYFIYFK(COCH2)Y (thioether 2-19 (inferred)) [cyclic peptide SEQ ID NO: 263]
≥ 0.7 ratio

# repeat for YCEENYNDPEQYQYFIYFK(COCH2)Y (thioether 2-19 (inferred)) [cyclic peptide SEQ ID NO: 200]
0.1 to 0.5 ratio

# repeat for YCEENYLDEEQYQYFIYFK(COCH2)Y (thioether 2-19 (inferred)) [cyclic peptide SEQ ID NO: 233]
≥ 0.7 ratio

# repeat for YCEENYLDPEQYQYFIEFK(COCH2)Y (thioether 2-19 (inferred)) [cyclic peptide SEQ ID NO: 303]
≥ 0.7 ratio

# repeat for GCGYTQLHYQHLFAWLHARK(COCH2)V (thioether 2-20 (inferred)) [cyclic peptide SEQ ID NO: 425]
0.1 to 0.5 ratio

# repeat for YCEENYLDDEQYQYFIYFK(COCH2)Y (thioether 2-19 (inferred)) [cyclic peptide SEQ ID NO: 232]
≥ 0.7 ratio

# repeat for YCEENYLDPMQYQYFIYFK(COCH2)Y (thioether 2-19) [cyclic peptide SEQ ID NO: 354]
≥ 0.7 ratio

# repeat for LCYLYQYIYTAK(COCH2)F (thioether 2-12) [cyclic peptide SEQ ID NO: 363]
0.1 to 0.5 ratio

# repeat for YCHENYLDPEQYQYFHYFK(COCH2)R (thioether 2-19) [cyclic peptide SEQ ID NO: 394]
0.5 to 0.7 ratio

# repeat for YCEENYEDPEQYQYFIYFK(COCH2)Y (thioether 2-19 (inferred)) [cyclic peptide SEQ ID NO: 204]
0.1 to 0.5 ratio

# repeat for YCEENYLDPEQYIYFIYFK(COCH2)Y (thioether 2-19 (inferred)) [cyclic peptide SEQ ID NO: 259]
≥ 0.7 ratio

# repeat for YCEENYLDPEQHQYFIYFK(COCH2)R (thioether 2-19) [cyclic peptide SEQ ID NO: 396]
0.5 to 0.7 ratio

# repeat for YCEENYLDPEQYQYFHYFK(COCH2)H (thioether 2-19) [cyclic peptide SEQ ID NO: 391]
≥ 0.7 ratio

# repeat for WCFTEGIQSTVQLTYSYLYK(COCH2)L (thioether 2-20 (inferred)) [cyclic peptide SEQ ID NO: 423]
0.1 to 0.5 ratio

# repeat for YCEENYLNPEQYQYFIYFK(COCH2)Y (thioether 2-19 (inferred)) [cyclic peptide SEQ ID NO: 214]
≥ 0.7 ratio

# repeat for YCEENYLDKEQYQYFIYFK(COCH2)Y (thioether 2-19; not fully specified; printed as Y-(C)-EENYLDKEQYQYFIYF-(K(acetyl))-Y) [cyclic peptide SEQ ID NO: 341]
≥ 0.7 ratio

# repeat for LCRNYINPQQWRYFALYK(COCH2)Y (thioether 2-18) [cyclic peptide SEQ ID NO: 108]
≥ 0.7 ratio

# repeat for NCPNYWSQIQWHYFQAYK(COCH2)Q (thioether 2-18) [cyclic peptide SEQ ID NO: 115]
≥ 0.7 ratio

# repeat for YCEENYLDPEQYEYFIYFK(COCH2)Y (thioether 2-19 (inferred)) [cyclic peptide SEQ ID NO: 268]
≥ 0.7 ratio

# repeat for CRALLRGAPFHLAEK(COCH2) (thioether 1-15) [cyclic peptide SEQ ID NO: 36]
< 0.1 ratio

# repeat for KCAQNFINPVQWRYFQHYKN (thioether ring (C)-(K(acetyl))) [cyclic peptide SEQ ID NO: 54]
≥ 0.7 ratio

# repeat for ECEENYLDPEQYQYFIYFK(COCH2)Y (thioether 2-19) [cyclic peptide SEQ ID NO: 148]
≥ 0.7 ratio
